Recorded values, source patent US20110237528A1.

A collection of compounds and their measured IC50
Biological target: CFTR in the CHO-CFTR cell line (Homo sapiens)
Construct: expressed in transfected cells; host or cells: CHO (CHO-CFTR cell line)
Test: CHO-CFTR assay (FLIPR assay, same conditions as T84 assay)
Format: cell-based
Conditions: average of at least 2 runs unless marked n = 1

Example cases with answers are listed next.
COCCOCCOCCOCCOCCN(Cc1ccc(C(C)(C)C)cc1)C(=O)c1ncn(-c2cc(Cl)c(O)c(Cl)c2)n1 [Compound 118] | ≥ 50 µM
COCCOCCOCCOCCN(Cc1ccc(Cl)c(Cl)c1)C(=O)c1ncn(-c2cc(Cl)c(O)c(Cl)c2)n1 [Compound 111] | ≥ 50 µM

Below: the item to evaluate.
Quick one: IC50 of C=CCN(Cc1ccc(C(C)C)cc1)C(=O)c1ncn(-c2cc(Cl)c(O)c(Cl)c2)n1 [Compound 101] ?
≥ 50 µM

----------
Biological target: CFTR channel in human colonic T84 cells (Homo sapiens)
Construct: host or cells: T84 human colonic cells
Sequence (P13569 whole entry): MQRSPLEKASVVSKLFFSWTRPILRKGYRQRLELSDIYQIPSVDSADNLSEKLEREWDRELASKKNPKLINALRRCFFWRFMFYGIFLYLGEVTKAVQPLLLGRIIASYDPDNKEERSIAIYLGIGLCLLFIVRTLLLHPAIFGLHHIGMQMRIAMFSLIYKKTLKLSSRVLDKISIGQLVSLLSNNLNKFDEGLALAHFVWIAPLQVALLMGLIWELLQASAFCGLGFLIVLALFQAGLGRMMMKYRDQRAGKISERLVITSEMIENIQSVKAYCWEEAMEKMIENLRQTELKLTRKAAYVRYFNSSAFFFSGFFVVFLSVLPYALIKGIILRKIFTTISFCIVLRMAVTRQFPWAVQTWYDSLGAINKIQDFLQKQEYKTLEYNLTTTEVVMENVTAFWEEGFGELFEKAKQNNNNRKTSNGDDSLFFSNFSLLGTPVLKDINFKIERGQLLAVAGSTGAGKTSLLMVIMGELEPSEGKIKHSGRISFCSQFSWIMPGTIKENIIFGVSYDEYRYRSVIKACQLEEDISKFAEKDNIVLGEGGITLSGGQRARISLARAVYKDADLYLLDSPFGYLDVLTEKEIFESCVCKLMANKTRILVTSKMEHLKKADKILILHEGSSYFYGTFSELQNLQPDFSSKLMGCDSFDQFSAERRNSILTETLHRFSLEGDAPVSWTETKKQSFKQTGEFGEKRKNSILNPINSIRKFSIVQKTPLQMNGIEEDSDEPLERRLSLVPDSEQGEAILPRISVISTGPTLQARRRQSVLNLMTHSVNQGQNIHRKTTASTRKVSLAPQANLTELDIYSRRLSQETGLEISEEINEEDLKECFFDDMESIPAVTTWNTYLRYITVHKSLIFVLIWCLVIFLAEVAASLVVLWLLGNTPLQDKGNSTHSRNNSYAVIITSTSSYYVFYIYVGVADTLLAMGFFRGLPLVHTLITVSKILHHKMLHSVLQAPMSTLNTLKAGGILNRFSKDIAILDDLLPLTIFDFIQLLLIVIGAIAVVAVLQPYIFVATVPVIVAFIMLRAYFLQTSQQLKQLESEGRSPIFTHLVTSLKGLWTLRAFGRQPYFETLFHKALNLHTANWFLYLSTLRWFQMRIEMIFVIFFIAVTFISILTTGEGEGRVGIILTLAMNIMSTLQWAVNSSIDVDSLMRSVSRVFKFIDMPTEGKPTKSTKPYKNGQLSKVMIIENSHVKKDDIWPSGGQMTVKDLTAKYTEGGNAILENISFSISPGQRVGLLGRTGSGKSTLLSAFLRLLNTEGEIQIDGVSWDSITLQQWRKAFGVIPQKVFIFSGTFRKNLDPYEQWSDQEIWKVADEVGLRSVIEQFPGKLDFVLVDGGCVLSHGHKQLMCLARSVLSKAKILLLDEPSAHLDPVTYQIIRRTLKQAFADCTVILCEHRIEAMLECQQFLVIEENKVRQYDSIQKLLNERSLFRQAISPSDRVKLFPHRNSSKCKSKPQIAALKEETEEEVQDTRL
Assay: T84 assay (FLIPR membrane potential dye, forskolin/IBMX-stimulated)
Assay type: cell-based
Settings: average of at least 2 runs unless marked n = 1
Documented IC50 across a set of compounds

O=C(NCc1ccc(Oc2cc(C(F)(F)F)cc(C(F)(F)F)c2)cc1)c1ncn(-c2cc(Cl)c(O)c(Cl)c2)n1 | ≥ 50 µM

State the recorded IC50 for this entry: CN(C)c1cccc(Oc2ccc(CNC(=O)c3ncn(-c4cc(Cl)c(O)c(Cl)c4)n3)cc2)c1
≥ 50 µM
